- Type: in vivo
- condition_description: human, whole blood, po, 50 mg
parameter_measured: half-life

> print(dat)
                            chemical.smiles  obs.value
1  Cc1c(F)cccc1NC(=O)Nc1ccc(Cl)c(S(=O)(=O)[C@H]2CCCNC2)c1O   7 to 9 h
